All values here come from ChEMBL document CHEMBL1687734.

# procedure text: AUC (0 to infinity) in 8 hrs fasted healthy human plasma at 200 mg, po administered as single dose of suspension
# Format: ADME, organism-based
# Set-up: dose 200 mg, route oral, time infinity
assay readout: AUC(0-inf) (ng·h/mL)
Express it in ng·h/mL; write the number only.

Consider the compound CC[C@H]1OC(=O)[C@H](C)C(=O)[C@H](C)[C@@H](O[C@@H]2O[C@H](C)C[C@H](N(C)C)[C@H]2O)[C@@]2(C)C[C@@H](C)/C(=N\C(C)=O)[C@H](C)[C@@H](OC/C(=N\OCc3ccc(-n4cccn4)nc3)CO2)[C@]1(C)O and give its measured AUC(0-inf).
8350
